measured.target: Progesterone receptor (Homo sapiens, UniProt P06401)
Sequence (P06401 whole entry): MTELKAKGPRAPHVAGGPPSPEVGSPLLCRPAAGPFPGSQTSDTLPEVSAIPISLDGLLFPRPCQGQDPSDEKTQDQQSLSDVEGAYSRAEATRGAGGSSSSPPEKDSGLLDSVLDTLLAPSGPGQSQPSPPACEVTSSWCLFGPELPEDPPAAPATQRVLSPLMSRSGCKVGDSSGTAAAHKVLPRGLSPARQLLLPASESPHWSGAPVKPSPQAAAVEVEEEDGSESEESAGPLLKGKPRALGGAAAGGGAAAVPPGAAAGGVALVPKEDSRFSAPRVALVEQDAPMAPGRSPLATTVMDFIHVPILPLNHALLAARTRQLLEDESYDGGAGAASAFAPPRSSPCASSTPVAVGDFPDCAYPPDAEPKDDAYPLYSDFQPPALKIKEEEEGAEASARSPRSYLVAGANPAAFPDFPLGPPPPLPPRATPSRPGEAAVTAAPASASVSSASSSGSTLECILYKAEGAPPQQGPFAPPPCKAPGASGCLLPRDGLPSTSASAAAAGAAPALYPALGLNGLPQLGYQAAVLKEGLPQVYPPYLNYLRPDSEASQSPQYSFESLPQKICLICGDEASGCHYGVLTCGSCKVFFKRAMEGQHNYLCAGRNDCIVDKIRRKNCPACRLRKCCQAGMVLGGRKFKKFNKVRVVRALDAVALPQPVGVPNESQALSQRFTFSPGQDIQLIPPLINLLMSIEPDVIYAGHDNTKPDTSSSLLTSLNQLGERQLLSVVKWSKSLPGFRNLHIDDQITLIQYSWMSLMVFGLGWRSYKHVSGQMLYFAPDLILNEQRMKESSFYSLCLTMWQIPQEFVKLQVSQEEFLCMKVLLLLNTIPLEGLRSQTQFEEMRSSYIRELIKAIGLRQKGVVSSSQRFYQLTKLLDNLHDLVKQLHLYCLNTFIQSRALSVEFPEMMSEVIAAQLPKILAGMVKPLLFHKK
protocol.notes: Dissociation constant for [3H]ORG2058 at human progesterone receptor at 288 K
endpoint.name: Kd (nM)
Give the value, in units of nM, as a plain number.

Per the record, CC[C@@H]1C[C@H]2[C@@H]3CCC4=CC(=O)CC[C@@H]4[C@H]3CC[C@]2(C)[C@H]1C(=O)CO has Kd of 2.32
